targetSystem: CXCR4 (Homo sapiens (Human))
Sequence (P61073 whole entry): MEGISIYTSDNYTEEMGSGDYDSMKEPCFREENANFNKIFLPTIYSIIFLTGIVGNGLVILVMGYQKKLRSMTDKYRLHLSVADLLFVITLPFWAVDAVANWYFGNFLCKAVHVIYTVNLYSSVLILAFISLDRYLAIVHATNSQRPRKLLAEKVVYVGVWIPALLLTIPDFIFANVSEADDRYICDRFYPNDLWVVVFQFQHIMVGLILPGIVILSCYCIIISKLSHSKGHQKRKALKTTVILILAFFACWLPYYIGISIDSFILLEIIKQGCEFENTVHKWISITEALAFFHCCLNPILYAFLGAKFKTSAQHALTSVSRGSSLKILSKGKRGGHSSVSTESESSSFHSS
methodDescription: Cellular impedance change induced by SDF-1a (cellular dielectric spectroscopy)
Format: cell-based
experimentalSetup: HeLa cells, endogenous CXCR4, EC50 concentration of SDF-1a, 30 minutes; read-out: Antagonist IC50
# reported IC50; entries follow

Solved entries:
compound	IC50
NCCCCN(Cc1nccc2c3ccccc3n(CCN3CCNCC3)c12)C1CCCc2cccnc21 (stereo not drawn)	5.7 nM
O=C(Cn1c2ccccc2c2ccnc(CN(CCCN3CCNCC3)C3CCCc4cccnc43)c21)N1CCOCC1 (stereo not drawn)	15 nM
NCCCCN(Cc1nccc2c3ccccc3n(CCCN)c12)C1CCCc2cccnc21 (stereo not drawn)	7.3 nM
NCCCCN(Cc1nccc2c3ccccc3n(CCCN3CCNCC3)c12)C1CCCc2cccnc21 (stereo not drawn)	8.3 nM
NCCCCN(Cc1nccc2c3ccccc3n(CC(=O)N3CCOCC3)c12)C1CCCc2cccnc21 (stereo not drawn)	5.6 nM
CN1CCN(C(=O)Cn2c3ccccc3c3ccnc(CN(CCCCN)C4CCCc5cccnc54)c32)CC1 (stereo not drawn)	11 nM

So for NCCCCN(Cc1nccc2c3ccccc3n(CC(=O)N3CCC(O)CC3)c12)C1CCCc2cccnc21 (stereo not drawn) , the logged IC50 turned out to be 12 nM

So for C#CCn1c2ccccc2c2ccnc(CN(CCCCN)C3CCCc4cccnc43)c21 (stereo not drawn) , the logged IC50 turned out to be 5.5 nM

So for c1cnc2c(c1)CCCC2N(CCCN1CCNCC1)Cc1nccc2c3ccccc3n(CCN3CCOCC3)c12 (stereo not drawn) [drawing 811] , the logged IC50 turned out to be 9.3 nM
